MIC values for the molecules below.
- Tested on: Staphylococcus aureus
- experimental-details: Antibacterial activity against Staphylococcus aureus after 18 hrs by broth microdilution method
- Assay type: functional
Dear colleague, please return just the value in µg/mL, with no unit written.

Record excerpt, results attached:
Form field - read-out: MIC; system: Staphylococcus aureus; submitted item: `Cc1ccc(C)n1-c1ccccc1NC(=S)Nc1ccc(Cl)c(Cl)c1`
0.2

Cool, now `c1coc(-c2cc(-c3ccc(-n4cccc4)cc3)on2)c1`
50

Cool, now CC(=O)N1N=C(c2ccc(-n3cccc3)cc2)CC1c1ccccc1Br (stereo not given)
100

Continuing:
Form field - read-out: MIC; system: Staphylococcus aureus; submitted item: CC(=O)N1N=C(c2ccc(-n3cccc3)cc2)CC1c1ccco1 (stereo not given)
50

Cool, now `O=C(/C=C/c1ccccc1)c1ccc(-n2cccc2)cc1`
25

Cool, now COc1ccc(C2CC(c3ccc(-n4cccc4)cc3)=NN2C(C)=O)cc1OC (stereo not given)
25

Cool, now O=C(O)c1cn(C2CC2)c2cc(N3CCNCC3)c(F)cc2c1=O [CIPROFLOXACIN]
0.15

Cool, now CC(=O)N1N=C(c2ccc(-n3cccc3)cc2)CC1c1cccc(Oc2ccccc2)c1 (stereo not given)
100

Cool, now `O=C(/C=C/c1cccc(Oc2ccccc2)c1)c1ccc(-n2cccc2)cc1`
50

Cool, now `COc1ccc(-c2cc(-c3ccc(-n4cccc4)cc3)on2)cc1OC`
25

###

- Tested on: Staphylococcus aureus
- experimental-details: Antibacterial activity against Staphylococcus aureus after 18 hrs by broth microdilution method
- Type: functional
log10 of MIC values for the molecules below.
// units: µg/mL (pre-log); metric: MIC; scale: log10

Record excerpt, results attached:
Look up log10 of MIC for this molecule: `COc1ccc(/C=C/C(=O)c2ccc(-n3cccc3)cc2)cc1OC`
1.10

Cool, now COc1cccc(C2CC(c3ccc(-n4cccc4)cc3)=NN2C(C)=O)c1 (centres undefined)
1.40

Cool, now CC(=O)N1N=C(c2ccc(-n3cccc3)cc2)CC1c1cccc(Br)c1 (centres undefined)
1.70

Cool, now `c1ccc(Oc2cccc(-c3cc(-c4ccc(-n5cccc5)cc4)on3)c2)cc1`
1.70

Cool, now `Cc1ccc(C)n1-c1ccccc1NC(=S)Nc1ccc(F)cc1`
-0.10

Continuing:
Look up log10 of MIC for this molecule: `CCn1cc(C(=O)O)c(=O)c2cc(F)c(N3CCNCC3)cc21`
0.31

Cool, now `CC(C)c1ccc(/C=C/C(=O)c2ccc(-n3cccc3)cc2)cc1`
1.10

Cool, now CC(=O)N1N=C(c2ccc(-n3cccc3)cc2)CC1c1ccc(F)cc1 (centres undefined)
1.10

Cool, now `Clc1cccc(Cl)c1-c1cc(-c2ccc(-n3cccc3)cc2)on1`
1.40

Cool, now CC(=O)N1N=C(c2ccc(-n3cccc3)cc2)CC1c1ccccc1 (centres undefined)
1.70

Cool, now `Clc1cccc(-c2cc(-c3ccc(-n4cccc4)cc3)on2)c1Cl`
1.70

Cool, now `Cc1ccc(C)n1-c1ccccc1NC(=S)Nc1ccc([N+](=O)[O-])cc1`
-0.70

###

- Test system: Staphylococcus aureus
- experimental-details: Antibacterial activity against Staphylococcus aureus after 18 hrs by broth microdilution method
- Type: functional
MIC values for the compounds below.
Dear colleague, please return just the value in µg/mL, with no unit written.

Form field - read-out: MIC; system: Staphylococcus aureus; submitted item: `Clc1ccc(-c2cc(-c3ccc(-n4cccc4)cc3)on2)cc1`
25

Moving on to the next compound.
Form field - read-out: MIC; system: Staphylococcus aureus; submitted item: `O=C(/C=C/c1cccc(Cl)c1Cl)c1ccc(-n2cccc2)cc1`
25

###

- Tested on: Staphylococcus aureus
- experimental-details: Antibacterial activity against Staphylococcus aureus after 18 hrs by broth microdilution method
- Type: functional
log10 of MIC values for the compounds below.
// units: mg/L (pre-log); metric: MIC; scale: log10

Look up log10 of MIC for this compound: `Cc1ccc(C)n1-c1ccccc1NC(=S)Nc1ccccc1`
-0.10

Continuing:
Look up log10 of MIC for this compound: `O=C(/C=C/c1ccccc1Br)c1ccc(-n2cccc2)cc1`
1.70

Cool, now `O=C(/C=C/c1ccc(F)cc1)c1ccc(-n2cccc2)cc1`
1.40

Cool, now CC(=O)N1N=C(c2ccc(-n3cccc3)cc2)CC1c1ccc(Cl)cc1 (configuration not stated)
1.40

Cool, now `O=C(/C=C/c1ccc(Cl)cc1Cl)c1ccc(-n2cccc2)cc1`
1.70

Cool, now `Cc1ccc(C)n1-c1ccccc1NC(=S)Nc1cccc(Cl)c1`
-0.70

Cool, now `COc1cccc(/C=C/C(=O)c2ccc(-n3cccc3)cc2)c1`
1.40

Cool, now `Cc1ccc(NC(=S)Nc2ccccc2-n2c(C)ccc2C)cc1`
-0.40

Cool, now `Clc1ccc(-c2cc(-c3ccc(-n4cccc4)cc3)on2)c(Cl)c1`
1.40

###

- Tested on: Staphylococcus aureus
- experimental-details: Antibacterial activity against Staphylococcus aureus after 18 hrs by broth microdilution method
- Assay type: functional
experimental-readout: MIC (µg/mL)
Dear colleague, please return just the value in µg/mL, with no unit written.

Form field - read-out: MIC; system: Staphylococcus aureus; submitted item: CC(=O)N1N=C(c2ccc(-n3cccc3)cc2)CC1c1ccccc1Cl (centres undefined)
50

Cool, now CC(=O)N1N=C(c2ccc(-n3cccc3)cc2)CC1c1cccc(Cl)c1Cl (centres undefined)
25

Cool, now `Cc1ccc(C)n1-c1ccccc1NC(=S)Nc1ccc(Cl)cc1`
0.2

Cool, now `O=C(/C=C/c1ccco1)c1ccc(-n2cccc2)cc1`
25

Cool, now CC(=O)N1N=C(c2ccc(-n3cccc3)cc2)CC1c1c(Cl)cccc1Cl (centres undefined)
25

Cool, now COc1ccc(C2CC(c3ccc(-n4cccc4)cc3)=NN2C(C)=O)c(OC)c1 (centres undefined)
25

Cool, now `Brc1ccccc1-c1cc(-c2ccc(-n3cccc3)cc2)on1`
50

Cool, now CC(=O)N1N=C(c2ccc(-n3cccc3)cc2)CC1c1ccc(Cl)cc1Cl (centres undefined)
50

Cool, now `Cc1ccc(C)n1-c1ccccc1NC(=S)Nc1cccc(Br)c1`
0.2

###

MIC values for the molecules below.
- Test system: Staphylococcus aureus
- experimental-details: Antibacterial activity against Staphylococcus aureus after 18 hrs by broth microdilution method
- Assay type: functional
Dear colleague, please return just the value in µg/mL, with no unit written.

Look up MIC for this molecule: `Cc1ccc(-c2cc(-c3ccc(-n4cccc4)cc3)on2)cc1`
25

Cool, now `O=C(/C=C/c1ccccc1Cl)c1ccc(-n2cccc2)cc1`
25

Cool, now `Cc1ccc(C)n1-c1ccccc1NC(=S)Nc1ccccc1Br`
1.6

Cool, now `O=C(/C=C/c1cccc(Br)c1)c1ccc(-n2cccc2)cc1`
50

Cool, now `Clc1ccccc1-c1cc(-c2ccc(-n3cccc3)cc2)on1`
50

Continuing:
Look up MIC for this molecule: `O=C(/C=C/c1ccc(Cl)cc1)c1ccc(-n2cccc2)cc1`
50

Cool, now `COc1ccc(/C=C/C(=O)c2ccc(-n3cccc3)cc2)cc1`
25

###

- System: Staphylococcus aureus
- experimental-details: Antibacterial activity against Staphylococcus aureus after 18 hrs by broth microdilution method
- Assay type: functional
MIC values for the molecules below.
Dear colleague, please return just the value in µg/mL, with no unit written.

Record excerpt, results attached:
Look up MIC for this molecule: `O=C(/C=C/c1c(Cl)cccc1Cl)c1ccc(-n2cccc2)cc1`
25

Cool, now `Brc1cccc(-c2cc(-c3ccc(-n4cccc4)cc3)on2)c1`
25

Cool, now `Fc1ccc(-c2cc(-c3ccc(-n4cccc4)cc3)on2)cc1`
25

Cool, now `O=C(/C=C/c1ccccc1O)c1ccc(-n2cccc2)cc1`
50

Continuing:
Look up MIC for this molecule: CC(=O)N1N=C(c2ccc(-n3cccc3)cc2)CC1c1ccc(C)cc1 (stereo unspecified)
25

Cool, now `c1ccc(-c2cc(-c3ccc(-n4cccc4)cc3)on2)cc1`
50
